Provide the recorded MEC (minimum effective concentration) for the entries that follow.
- Tested on: recombinant guanylate cyclase reporter cell line (Rattus norvegicus, UniProt P19686+P20595)
- Construct: expressed in transfected cells
- Sequence (P19686 whole entry): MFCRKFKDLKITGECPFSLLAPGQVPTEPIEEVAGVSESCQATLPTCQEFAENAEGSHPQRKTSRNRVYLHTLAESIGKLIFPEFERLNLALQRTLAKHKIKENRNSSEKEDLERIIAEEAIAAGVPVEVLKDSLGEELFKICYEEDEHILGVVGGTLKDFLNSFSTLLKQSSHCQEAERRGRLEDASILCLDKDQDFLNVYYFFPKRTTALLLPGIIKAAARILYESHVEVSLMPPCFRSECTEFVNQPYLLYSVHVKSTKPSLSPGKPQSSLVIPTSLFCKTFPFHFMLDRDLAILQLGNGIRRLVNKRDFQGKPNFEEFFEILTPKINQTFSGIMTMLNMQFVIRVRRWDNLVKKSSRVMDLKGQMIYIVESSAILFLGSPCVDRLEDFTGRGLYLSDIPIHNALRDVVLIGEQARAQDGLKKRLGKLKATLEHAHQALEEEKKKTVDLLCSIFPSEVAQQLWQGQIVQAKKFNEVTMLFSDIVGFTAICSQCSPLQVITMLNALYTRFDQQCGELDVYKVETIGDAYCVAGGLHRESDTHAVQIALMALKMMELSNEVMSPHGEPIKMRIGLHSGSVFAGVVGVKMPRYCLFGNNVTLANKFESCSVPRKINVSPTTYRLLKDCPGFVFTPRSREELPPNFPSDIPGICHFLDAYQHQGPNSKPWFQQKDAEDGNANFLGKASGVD
- Sequence (P20595 whole entry): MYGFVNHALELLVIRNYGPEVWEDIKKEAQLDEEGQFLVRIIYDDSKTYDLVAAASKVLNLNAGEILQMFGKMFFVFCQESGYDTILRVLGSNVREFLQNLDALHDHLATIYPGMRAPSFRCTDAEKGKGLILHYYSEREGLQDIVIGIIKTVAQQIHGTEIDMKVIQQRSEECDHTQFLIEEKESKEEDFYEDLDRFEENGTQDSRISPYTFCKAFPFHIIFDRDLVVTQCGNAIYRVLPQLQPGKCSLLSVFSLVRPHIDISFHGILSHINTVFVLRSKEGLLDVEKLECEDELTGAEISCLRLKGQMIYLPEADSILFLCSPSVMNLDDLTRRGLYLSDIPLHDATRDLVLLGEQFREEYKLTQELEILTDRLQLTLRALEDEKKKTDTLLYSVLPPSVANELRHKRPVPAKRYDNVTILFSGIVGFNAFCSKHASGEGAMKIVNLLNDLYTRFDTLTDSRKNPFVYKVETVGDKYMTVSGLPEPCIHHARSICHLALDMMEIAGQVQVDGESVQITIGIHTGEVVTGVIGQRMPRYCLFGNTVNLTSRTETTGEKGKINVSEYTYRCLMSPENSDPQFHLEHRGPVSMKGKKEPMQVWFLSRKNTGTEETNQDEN
- Protocol notes: Effect on a recombinant guanylate cyclase reporter cell line (B-2)
- Type: cell-based
- Condition summary: in some cases mean values for individual determinations
- Protocol: B-2. Effect on a Recombinant Guanylate Cyclase Reporter Cell Line The cellular effect of the inventive compounds is determined using a recombinant guanylate cyclase reporter cell line, as described in F. Wunder et al., Anal. Biochem. 339, 104-112 (2005). Representative MEC values (MEC=minimum effective concentration) for the inventive compounds are shown in the table below (in some cases as mean values for individual determinations): […]
Structures can show the parent of a compound that is named as a salt.
Answers are plain numbers, in µM.

Cc1cc(OCc2c(F)cccc2F)n2nc(C)c(C(=O)NC3COc4ccccc43)c2c1 (racemic): 0.3
Cc1cc(OCc2c(F)ccc(F)c2F)n2nc(C)c(C(=O)NCCN(CC(F)F)C3CC3)c2c1: 0.3
CSCCC(N)CNC(=O)c1c(C)nn2c(OCc3c(F)cccc3F)cc(C)cc12 (racemic): 0.3
CCCC(C)(N)CNC(=O)c1c(C2CC2)nn2c(OCc3c(F)ccc(F)c3F)cc(C)cc12 (single isomer, unassigned; enantiomer b): 0.2
COCC(C)(N)CNC(=O)c1c(C)nn2c(OCc3c(F)cccc3F)cc(C)cc12 (racemic): 1.0

Parameter requested: MEC (minimum effective concentration). Apply to each item below.
1. Cc1cc(OCc2c(F)cccc2F)n2nc(C)c(C(=O)NC3CCOc4ncccc43)c2c1 (racemic) [Example 74, trifluoroacetate]
2. Cc1cc(OCc2c(F)cccc2F)n2nc(C)c(C(=O)NC3(c4ccc(F)c(F)c4)CC3)c2c1

Reply:
0.03
0.1
